- Assay method text: E. coli DRC41 culture turbidity changes, primary screen, E. coli filamentation inducer project, strain DRC41, OD650, 48 h (AID 1152);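 note: E. coli MC1000 strain DRC41 lacking acrAB efflux pump and sulA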
- Test settings: E. coli DRC41 (acrAB sulA), higher = more signal, called active from +8 up or from −8 down
Property: z-score
Give only the figure.

Below: 3 compounds and their reported z-score.
# Compound, Property, Val
measured = [
    ("COc1cc2c(cc1O)C(c1ccc(CN3CCCC3)cc1)N(Cc1cccc(OC(F)(F)F)c1)CC2 (centres undefined)", "z-score", -4.5),
    ("C=C(COC)C(=O)CC[C@@H](OC(C)=O)c1ccc(OCCO)cc1", "z-score", -0.297),
    ("Cc1ccc(S(=O)(=O)N2[C@@H](c3ccccc3)C(C(=O)O)=CC[C@H]2c2ccc(C#N)cc2)cc1", "z-score", -1.22),
]

Consider the additional compound presented here.
Q: GET /values?readout=z-score&item= `O=C1O[C@H](c2ccccc2)[C@H](c2ccccc2)N2[C@H]1[C@@H](C(=O)NC[C@H](O)c1ccccc1)[C@]1(C(=O)Nc3ccc(C#CCCO)cc31)[C@H]2c1ccccc1OCCO`
A: 0.631

====

- Assay method text: cell viability in Huh7 cells, primary screen, cytotoxicity control for HCV replication inhibitor project, CellTiter-Glo luminescence, basal, 48 h (AID 1143);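 note: Huh7 hepatoma cells carrying a hepatitis C replication reporter with no stimulus; test concentration not given here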
- Test settings: Huh7 HCV replicon, higher = more signal, called active from +8 up or from −8 down
Output fulfilled for z-score not less than -0.1; output not fulfilled otherwise.

Q: Textbook exercise: given the entry CC(C)c1ccc(NN2C(C(O)C(C)C)C=CC3C(=O)N(c4ccccc4)C(=O)C32)cc1 (stereo not drawn) , state whether its z-score is greater than or equal to -0.1.
A: not fulfilled

Q: Item: `COC(=O)Cn1c(C(=O)N(C)C)cc2c1C[C@H]1CN(C(=O)c3ccccc3)[C@@](Cc3ccc(OC)cc3)(C(=O)OC)[C@@H]21`
A: not fulfilled

Q: Item: `C=CCNC(=O)[C@H]1[C@@H]2C(=O)O[C@@H](c3ccccc3)[C@@H](c3ccccc3)N2[C@@H](c2ccccc2OCCO)[C@]12C(=O)N(C(=O)OCCOC)c1ccccc12`
A: not fulfilled

Q: Item: `CC(C)C[C@@H]1NC(=O)[C@@H]2C[C@H](C(=O)O)[C@H](c3ccc(O)cc3)N2C1=O`
A: not fulfilled

Q: Item: `CC(C)CNC(=O)[C@@H]1c2ccccc2C(=O)N(C2Cc3ccccc3C2)[C@H]1c1ccc(CO)cc1`
A: not fulfilled

====

- Assay method text: modulators of S6 phosphorylation in cells, primary screen, cell-based, A549, cytoblot, luminescence, serum-stimulated (AID 1158);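 note: serum-stimulated A549 lung adenocarcinoma cells; signal is phosphorylated S6 detected by cytoblot immunostaining with HRP secondary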
- Test settings: A549 phospho-S6 cytoblot, 5 h, higher = more signal
Output YES for z-score not less than 0.5; output NO otherwise.

# Smi, Answer label
rows = [
    ("COC(=O)c1c(CC[C@@H](CO)NC(=O)N[C@@H](Cc2ccccc2)Cn2cc(-c3cncn3C)nn2)oc(C(C)=O)c1C(=O)OC", "YES"),
    ("COc1ccc([Si](C)(C)[C@@H]2[C@@H](CC(=O)N(CCO)Cc3ccccc3)O[C@]3(C(=O)N(Cc4ccc(N5CCC5=O)cc4)c4ccccc43)[C@H]2C)cc1", "YES"),
    ("CCCC[C@@H](O)C1=C(COC)Cn2c(=O)n(-c3ccccc3)c(=O)n2[C@H]1CO", "YES"),
    ("COC(=O)[C@@]1(Cc2ccccc2CN=[N+]=[N-])COC(c2ccc(OCCCO)cc2)=N1", "NO"),
    ("CN(C)CCCC[C@@H]1NC(=O)[C@H]2C[C@@H](C(=O)O)[C@@H](c3cccc(OCCO)c3)N2C1=O", "NO"),
]

Q: Textbook exercise: given the entry `COCCOC(=O)N1C(=O)[C@@]2(c3cc(C#CC4(O)CCCCCC4)ccc31)[C@H](c1ccccc1OCCO)N1[C@H](c3ccccc3)[C@H](c3ccccc3)OC(=O)[C@H]1[C@@H]2C(=O)N1CCCCCCC1` , state whether its z-score is greater than or equal to 0.5.
A: NO

====

- Tested on: Human papillomavirus type 1a protein E7 (residues 44-93)
- Assay method text: HPV1a E7 fragment binders on microarrays, primary screen, biochemical, small-molecule microarray, residues 44-93, 635 nm fluorescence (AID 1108);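 note: E7 fragment applied at 1 µg/mL in TBST for 1 h at 4 C; score combines spot fluorescence with its signal to noise ratio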
- Test settings: small-molecule microarray binding, fluorescence 635 nm; higher = more signal
We begin with a simple list: items and their reported composite z-score.
Give only the figure.

# Molecule, composite z-score
measured = [
    ("COCCOC(=O)N1C(=O)[C@@]2(c3ccccc31)[C@H](C(=O)N1CCCCCCC1)[C@H]1C(=O)O[C@H](c3ccccc3)[C@H](c3ccccc3)N1[C@@H]2c1ccc(O)cc1", 1.4),
    ("Cc1ccc(S[C@]2(C(=O)NCCCN(C)C)CC(=O)N(Cc3ccccc3Cl)[C@@H]2c2ccc(CO)cc2I)cc1", -0.177),
]

Q: GET /values?readout=composite z-score&item= `COCC(=C=CC[C@@H](O)c1ccc(OCCO)cc1)C[C@@H](O)COCc1ccccc1`
A: 1.39

Q: Item: `[N-]=[N+]=NCc1ccccc1[C@@H]1OC(c2ccc(OCCCO)cc2)=N[C@]1(Cc1ccccc1)C(=O)NCc1ccccc1`
A: 1.28

Q: Item: `COC(=O)[C@@]1(Cc2ccccc2)[C@H]2c3cc(C(=O)N4CCCC4)n(Cc4ccc(C(F)(F)F)nc4)c3C[C@H]2CN1C(=O)c1ccccc1`
A: 1.46

Q: Item: C=CCC(OC(C)=O)[C@@H]1[C@@H](N(Cc2ccc(-c3ccccc3)cc2)C(=O)c2cccc3ccccc23)c2cc(OCCCO)ccc2N1C(=O)c1ccc2ccccc2c1 (some centres not stated)
A: 0.403

Q: Item: `CO[C@H]1O[C@H](CO)[C@@H](OC(=O)Nc2ccc(C(F)(F)F)cc2)[C@H](OC(=O)Nc2ccccc2-c2ccccc2)[C@H]1OC(=O)Nc1ccccc1-c1ccccc1`
A: 1.47

====

We begin with a simple list: items and their reported composite z-score.
- Assay method text: compound binding in COS7 lysate, probe aLAP1, primary screen, cell lysate, small-molecule microarray (AID 1124);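 note: lysate comes from COS7 cells expressing LAP1 and is applied at 0.3 µg/mL; score merges spot fluorescence near 667 nm with signal-to-noise over triplicate slides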
- Test settings: probe aLAP1, fluorescence, higher = more signal
Give only the figure.

Below: 2 molecules and their reported composite z-score.
# Molecule, composite z-score
rows = [
    ("C=CCC(OC(C)=O)[C@@H]1[C@@H](N(Cc2cccc3ccccc23)C(=O)c2ccc(C)cc2)c2cc(OCCCO)ccc2N1C(=O)c1ccc2ccccc2n1 (stereo partly drawn)", 0.158),
    ("C#CCN([C@H](/C=C/C1CC1)[C@@H](O)Cc1ccccc1)[C@@H](Cc1ccccc1)C(=O)OC", -0.454),
]

Q: GET /values?readout=composite z-score&item= `CCCCNC(=O)c1ccc(C#C[Si](C)(C)C)c(OC(C)=O)c1`
A: 0.0462

====

We begin with a simple list: items and their reported z-score.
- Assay method text: E. coli DRC41 culture turbidity changes, primary screen, E. coli filamentation inducer project, strain DRC41, OD650, 48 h (AID 1152);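 note: E. coli MC1000 strain DRC41 lacking acrAB efflux pump and sulA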
- Test settings: E. coli DRC41 (acrAB sulA), higher = more signal, called active from +8 up or from −8 down
Give only the figure.

Below: 5 compounds and their reported z-score.
# Compound, z-score
data = [
    ("O=C1OCCC/C=C\\[C@H]2OC34C=CCN(Cc5ccccc5)C(=O)[C@H]3N(CCCCCO)C(=O)[C@@H]4C12 (stereo partly specified)", 0.435),
    ("COc1ccccc1CN1C(=O)c2ccccc2[C@](Cc2ccccc2I)(C(=O)NCCCN(C)C)[C@@H]1c1ccc(CO)cc1", -6.9),
    ("COCCOC(=O)N1C(=O)[C@@]2(c3cc(C#CCCO)ccc31)[C@H](c1ccccc1OCCO)N1[C@H](c3ccccc3)[C@H](c3ccccc3)OC(=O)[C@H]1[C@@H]2C(=O)N1CCc2cc(OC)c(OC)cc2C1", 0.891),
    ("COCCn1c(C(=O)N2CCCC2)cc2c1C[C@H]1CN(C(=O)c3ccccc3)[C@@](Cc3ccccc3)(C(=O)OC)[C@@H]21", -0.91),
    ("CC(C)C[C@@H]1NC(=O)C([C@@H](C)OCc2ccccc2)NC(=O)[C@@]23C(=O)N[C@@H](Cc4ccccc4)C2[C@H](C)[C@@]2(C)O[C@H]2C3/C=C/CC/C=C/CNC1=O (stereo partly specified)", 0.757),
]

Consider the additional compound presented here.
Q: GET /values?readout=z-score&item= `CN(C)C(=O)[C@@]1(CCS(=O)(=O)c2ccccc2)N=C(c2ccc(OCCCO)cc2)O[C@H]1c1ccccc1N=[N+]=[N-]`
A: 0.395

====

- Test system: Sam68 (KHDRBS1)
- Assay method text: Sam68 small-molecule binders, primary screen, biochemical, small-molecule microarray, 635 nm fluorescence (AID 1125);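 note: score merges 667 nm channel intensity with signal to noise over triplicate slides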
- Test settings: small-molecule microarray binding, higher = more signal
Output condition met for composite z-score not less than 1; output condition not met otherwise.

Q: Textbook exercise: given the entry `CC(C)C[C@@H]1NC(=O)[C@@H]2C[C@H](C(=O)O)[C@H](c3ccc(O)cc3)N2C1=O` , state whether its composite z-score is greater than or equal to 1.
A: condition met

Q: Item: `Cc1ccc(F)cc1S(=O)(=O)N[C@@H]1CCN(Cc2ccc3c(c2)OCO3)C1`
A: condition not met

Q: Item: C=CCC(OC(C)=O)[C@@H]1[C@@H](N(Cc2cc3ccccc3o2)C(=O)Cc2ccc(OC)cc2)c2cc(OCCCO)ccc2N1C(=O)Cc1ccc(OC)cc1 (stereo partly drawn)
A: condition not met

Q: Item: `O=C1N(Cc2ccccc2)c2ccccc2[C@H]2OC(c3ccc(OCCCO)cc3)=N[C@@]12Cc1ccccc1`
A: condition met

Q: Item: `C=CC[C@]1(C(=O)OC)N=C(c2ccc(OCCCO)cc2)O[C@H]1c1ccccc1N=[N+]=[N-]`
A: condition met
